Tested on: A549
PROTOCOL NOTES: NCI tumour cell line growth inhibition, 48 h
Activity calls are given as the source filed them. No stated cut-off is given here; in the data, active = GI50 up to about 1.1 µM and inactive = higher.
MEASURE NAME: GI50

A selection of reference data follows.
CNC(=S)OCCC(C)CCCC(C)C (stereo unspecified)
16.3 µM (inactive)
O=[N+]([O-])c1ccc2nc3c(nc2c1)-c1c2ccccc2cc2cccc-3c12
48.6 µM (inactive)
CCOC(=O)N1CCN(c2c(N)nc(C)nc2O)CC1
> 100 µM (inactive)

(Q) What does the record list as GI50 for CC(=O)N1CC[N+](C)(CCCCN2c3ccccc3Sc3cc(N=[N+]=[N-])ccc32)CC1 ?
(A) > 100 µM (inactive)

(Q) Which GI50 is listed for CC1C(c2ccc3c(c2)OCO3)c2cc3c(cc2OC1N1CCCCC1)OCO3 (stereo unspecified) ?
(A) > 100 µM (inactive)

(Q) What GI50 value was documented for this molecule, C/C(=C\[C@H]1C[C@@H]([C@@H]2CC[C@]34C[C@]23C=C[C@@H]2[C@@]3(C)CC=C5C[C@@H](c6ccccc6)OC[C@]5(C)[C@@H]3C[C@@H](O)[C@]24C)C(=O)O1)CO ?
(A) 2.79 µM (inactive)
